- Assayed target: Kv1.6 (Homo sapiens, UniProt P17658)
- Construct: expressed in transfected cells
- Sequence (P17658 whole entry): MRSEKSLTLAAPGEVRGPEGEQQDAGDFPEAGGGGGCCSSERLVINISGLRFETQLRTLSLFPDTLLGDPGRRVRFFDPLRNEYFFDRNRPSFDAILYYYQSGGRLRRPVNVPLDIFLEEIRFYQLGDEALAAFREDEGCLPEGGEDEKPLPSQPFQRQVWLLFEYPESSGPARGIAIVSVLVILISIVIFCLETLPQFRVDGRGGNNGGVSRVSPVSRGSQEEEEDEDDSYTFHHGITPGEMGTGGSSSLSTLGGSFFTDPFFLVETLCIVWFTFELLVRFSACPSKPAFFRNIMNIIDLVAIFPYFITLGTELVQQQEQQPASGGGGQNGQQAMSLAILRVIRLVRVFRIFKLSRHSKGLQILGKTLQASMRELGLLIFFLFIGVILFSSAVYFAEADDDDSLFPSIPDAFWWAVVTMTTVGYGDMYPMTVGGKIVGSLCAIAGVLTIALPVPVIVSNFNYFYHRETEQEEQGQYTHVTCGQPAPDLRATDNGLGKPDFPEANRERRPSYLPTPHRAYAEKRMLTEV
- Protocol summary: Patch clamp assay (QPatch), Kv1.6
- Type: cell-based
- Condition notes: QPatch; CHO cells stably expressing human Kv1.6; read-out: Potency IC50, Kv1.6
Below, each entry is listed with its recorded IC50.
Endpoint: IC50 (nM)

Substance: H-N[Nle]D[Nle]RC(1)SASVEC(2)KQKC(3)KAIGSIFGKC(1)[Nle]NKKC(2)KC(3)YPR-NH2 [Peptide 50]
Assayed target: Kv1.6 (Homo sapiens, UniProt P17658)
Value operator: =
Test value: 946

Substance: H-RC(1)SASVEC(2)KQKC(3)LKAIGSIFGKC(1)[Nle]NKKC(2)KC(3)YPR-NH2 [Peptide 111]
Assayed target: Kv1.6 (Homo sapiens, UniProt P17658)
Value operator: =
Test value: 1300

Substance: H-NMDMRC(1)SASVEC(2)KQKC(3)LKRIGSIFGKC(1)MNKKC(2)KC(3)YPR-NH2 [Peptide 57]
Assayed target: Kv1.6 (Homo sapiens, UniProt P17658)
Value operator: =
Test value: 932

Substance: H-NMEMRC(1)SASVEC(2)KQKC(3)LKAIGSIFGKC(1)MNKKC(2)KC(3)YPR-OH [Peptide 13]
Assayed target: Kv1.6 (Homo sapiens, UniProt P17658)
Value operator: >
Test value: 3000

Substance: H-S[Nle]D[Nle]RC(1)SASVEC(2)AQSC(3)LKAIGSIFGKC(1)MNKKC(2)KC(3)YPR-NH2 [Peptide 81]
Assayed target: Kv1.6 (Homo sapiens, UniProt P17658)
Value operator: >
Test value: 3000

Substance: H-N[Nle]D[Nle]RC(1)SHSVEC(2)KQKC(3)LKAIGSIFGKC(1)[Nle]NKKC(2)KC(3)YPR-NH2 [Peptide 48]
Assayed target: Kv1.6 (Homo sapiens, UniProt P17658)
Value operator: =
Test value: 609

Substance: H-NMDMRC(1)SASVEC(2)KQKC(3)KKAIGSIFGKC(1)MNKKC(2)KC(3)YPR-NH2 [Peptide 20]
Assayed target: Kv1.6 (Homo sapiens, UniProt P17658)
Value operator: =
Test value: 435

Substance: H-N[Nle]D[Nle]RC(1)SASVEC(2)KQSC(3)LKAIGSIFGKC(1)[Nle]NKKC(2)KC(3)YPR-NH2 [Peptide 49]
Assayed target: Kv1.6 (Homo sapiens, UniProt P17658)
Value operator: >
Test value: 3000

Substance: H-N[Nle]D[Nle]RC(1)SASKEC(2)KQKC(3)LKAIGSIFGKC(1)[Nle]NKKC(2)KC(3)YPR-NH2 [Peptide 64]
Assayed target: Kv1.6 (Homo sapiens, UniProt P17658)
Value operator: =
Test value: 1230

Substance: H-S[Nle]D[Nle]RC(1)SASVEC(2)KQKC(3)LKAIGSIFGKC(1)MNKKC(2)KC(3)[F(4-NH2)]PR-NH2 [Peptide 72]
Assayed target: Kv1.6 (Homo sapiens, UniProt P17658)
Value operator: >
Test value: 3000

Substance: H-[phosphotyrosyl][8-Amino-3,6-dioxaoctanoyl]RSCIDTIPKSRCTAFQCKHSMKYRLSFCRKTCGTC-NH2 [ShK-186, reference compound]
Assayed target: Kv1.6 (Homo sapiens, UniProt P17658)
Value operator: =
Test value: 0.45

Substance: H-NMDMRC(1)SASVEC(2)KQLC(3)LKAIGSIFGKC(1)MNKKC(2)KC(3)YPR-NH2 [Peptide 19]
Assayed target: Kv1.6 (Homo sapiens, UniProt P17658)
Value operator: >
Test value: 3000

Substance: H-NMDMRC(1)SASVEC(2)KQKC(3)LKAYGSIFGKC(1)MNKKC(2)KC(3)YPR-NH2 [Peptide 59]
Assayed target: Kv1.6 (Homo sapiens, UniProt P17658)
Value operator: >
Test value: 3000

Substance: H-NMDMRC(1)SISVEC(2)KQKC(3)LKAIGSIFGKC(1)MNKKC(2)KC(3)YPR-NH2 [Peptide 27]
Assayed target: Kv1.6 (Homo sapiens, UniProt P17658)
Value operator: >
Test value: 3000

Substance: H-NMDMRC(1)SASVEC(2)KQKC(3)LKAIGSIFGKC(1)MNKKC(2)KC(3)YPRRRTA-NH2 [Peptide 24]
Assayed target: Kv1.6 (Homo sapiens, UniProt P17658)
Value operator: =
Test value: 215

Measured values drawn from patent US20260325605A1 for this set.
